Numbers sourced from PubChem BioAssay.

# protocol.details: growth inhibition, single agents and combos, HTB85, cell-based, BGB or cisplatin IC20 combos, synergistic combos for chromothripsis tumors (AID 1671453);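 note: cells exposed for 96 hours before readout; 0% = vehicle DMSO and 100% = high DMSO killing control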
# stated.conditions: HTB85 osteosarcoma cells, drug combinations, single agent, at 5 µM, stronger effect = higher value
inhibition listing for selected compounds.
property.name: inhibition (%)

{"columns": ["chem.smiles", "measurement.unit", "result.number"],
 "data": [
  ["CO[C@H]1/C=C/O[C@@]2(C)Oc3c(C)c(O)c4c(O)c(c(/C=N\\N5CCN(C6CCCC6)CC5)c(O)c4c3C2=O)NC(=O)/C(C)=C\\C=C\\[C@H](C)[C@H](O)[C@@H](C)[C@@H](O)[C@@H](C)[C@H](OC(C)=O)[C@@H]1C", "%", 35.1],
  ["CN(C)Cc1c(C(=O)NCCOc2ccc(C(=O)NO)cc2)oc2ccccc12", "%", 99.8],
  ["O=c1[nH]cnc2ccccc12", "%", -7.3],
  ["Nc1ccc(-c2ccc3ncc4ccc(=O)n(-c5cccc(C(F)(F)F)c5)c4c3c2)cn1", "%", 79.3],
  ["CS(=O)(=O)c1ccc(-c2nnc(/C=C/c3nnc(-c4ccc(C#N)cc4)o3)n2-c2ccccc2Cl)nc1", "%", 38.8],
  ["C[C@]12CCCN1CC1=NNC(=O)c3cc(F)cc4[nH]c2c1c34", "%", 23.4],
  ["Nc1ncnc2c1c(-c1cnc3[nH]ccc3c1)nn2C1CCCC1", "%", 95.9],
  ["O=c1[nH]c([C@@H]2CCCN2)nc2c1oc1ccc(Cl)cc12", "%", -2.45],
  ["CC(=O)Nc1ccc(C(=O)Nc2ccccc2N)cc1", "%", 37.1],
  ["c1cc(Nc2cc(C3CC3)[nH]n2)nc(Nc2ccc3nc[nH]c3c2)n1", "%", 99.5],
  ["CCCCc1nc2cc(/C=C/C(=O)NO)ccc2n1CCN(CC)CC", "%", 99.7],
  ["CC(=O)Nc1nc(C)c(-c2ccc(Cl)c(S(=O)(=O)NCCO)c2)s1", "%", 46.6],
  ["NCCOc1cc(C(=O)Nc2cc(OCCN)c3ccccc3n2)nc(C(=O)Nc2cc(OCCN)c3ccccc3n2)c1", "%", -2.66],
  ["Cc1ccc2nc(NCCN)c3ncc(C)n3c2c1", "%", 91.7],
  ["CN(C)c1ccc(C(=O)NCCCCCCC(=O)NO)cc1", "%", 97.7],
  ["C=C1[C@H](CO)[C@@H](O)C[C@@H]1n1cnc2c(=O)[nH]c(N)nc21", "%", -13],
  ["Cc1cn([C@@H]2O[C@H](CO)[C@@H](O)[C@@H]2F)c(=O)[nH]c1=O", "%", 6.67],
  ["COc1ccc(-n2c(SCCCN3C(=O)c4cccc5cccc(c45)C3=O)nnc2-c2ccncc2)cc1", "%", 19.7],
  ["Cc1ccc([N+](=O)[O-])cc1S(=O)(=O)N(C)/N=C/c1cnc2ccc(Br)cn12", "%", 99.9],
  ["CN(C)CCN1C(=O)c2cccc3cc(N)cc(c23)C1=O", "%", 33.7],
  ["Nc1ccccc1NC(=O)c1ccc(CNc2nccc(-c3cccnc3)n2)cc1", "%", 99.2]
]}

====

# protocol.details: MELAS cybrid and Rieske KO viability enhancers – cell-based, MELAS cybrids, Rieske KO mouse fibroblasts, CellTiter-Glo, primary screen (AID 1508586);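 note: z relative to plate mean and SD of compound and empty wells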
# stated.conditions: MELAS cybrid survival, low glucose, CellTiter-Glo 48 h; stronger effect = higher value
z-score listing for selected molecules.

{"columns": ["molecule", "z-score"],
 "data": [
  ["COc1cc(Nc2ncc(F)c(Nc3ccc4c(n3)N(COP(=O)(O)O)C(=O)C(C)(C)O4)n2)cc(OC)c1OC", -0.637],
  ["NC(=O)c1cccc(-c2cccc(OC(=O)NC3CCCCC3)c2)c1", -0.288],
  ["CCCCC[C@H](O)/C=C/[C@@H]1[C@@H](C/C=C\\CCCC(=O)O)[C@@H](O)C[C@H]1O", -0.59],
  ["c1ccc(Cn2c(-c3ccc(OCC(C4CCNCC4)n4c(-c5ccccc5)nc5ccccc54)cc3)nc3ccccc32)cc1 (centres undefined)", -0.583]
]}
